Please provide measured pKi for the entries that follow.
- system name: rat mGluR5 receptor (Rattus norvegicus, UniProt P31424)
- Construct: expressed in transfected cells; host or cells: HEK-293
- Sequence (P31424 21-1203): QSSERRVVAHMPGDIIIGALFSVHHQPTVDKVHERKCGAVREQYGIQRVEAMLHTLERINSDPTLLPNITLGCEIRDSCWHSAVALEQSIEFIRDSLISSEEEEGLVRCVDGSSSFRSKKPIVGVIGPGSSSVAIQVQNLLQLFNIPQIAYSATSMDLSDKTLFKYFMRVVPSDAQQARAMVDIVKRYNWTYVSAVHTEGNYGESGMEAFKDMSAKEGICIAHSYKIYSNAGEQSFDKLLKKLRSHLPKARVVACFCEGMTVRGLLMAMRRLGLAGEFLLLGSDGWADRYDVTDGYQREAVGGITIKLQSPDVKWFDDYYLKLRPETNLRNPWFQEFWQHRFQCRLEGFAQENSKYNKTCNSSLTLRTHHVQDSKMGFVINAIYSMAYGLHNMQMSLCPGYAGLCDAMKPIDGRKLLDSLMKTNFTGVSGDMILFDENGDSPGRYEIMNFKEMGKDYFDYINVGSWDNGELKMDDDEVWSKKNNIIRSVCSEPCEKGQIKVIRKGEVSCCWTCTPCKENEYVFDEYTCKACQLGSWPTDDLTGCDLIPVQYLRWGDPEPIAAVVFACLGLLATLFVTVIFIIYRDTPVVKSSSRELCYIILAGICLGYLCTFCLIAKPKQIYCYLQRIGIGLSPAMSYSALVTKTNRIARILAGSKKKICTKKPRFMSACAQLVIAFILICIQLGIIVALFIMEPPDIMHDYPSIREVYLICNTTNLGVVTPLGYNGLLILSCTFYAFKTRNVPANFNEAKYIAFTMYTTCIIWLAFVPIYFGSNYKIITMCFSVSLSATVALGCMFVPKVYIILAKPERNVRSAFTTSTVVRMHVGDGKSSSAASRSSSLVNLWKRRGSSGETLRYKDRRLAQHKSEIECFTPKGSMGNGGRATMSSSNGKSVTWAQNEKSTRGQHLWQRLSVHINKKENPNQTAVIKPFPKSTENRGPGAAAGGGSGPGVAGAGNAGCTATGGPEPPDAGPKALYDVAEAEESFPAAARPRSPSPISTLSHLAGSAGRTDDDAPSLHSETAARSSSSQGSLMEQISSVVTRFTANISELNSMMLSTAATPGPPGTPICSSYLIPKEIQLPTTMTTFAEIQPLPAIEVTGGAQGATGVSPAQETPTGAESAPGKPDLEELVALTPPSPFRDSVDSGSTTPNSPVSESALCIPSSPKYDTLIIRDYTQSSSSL
- assay text: [3H]-MPEP displacement binding assay, HEK-293 cell membranes expressing rat mGluR5
- condition notes: read-out: Median Ki
Formally, pKi is defined as -log10 of the concentration c, with c in mol/L.

Looking up Cc1ccc(C(=O)N2CCN(c3ccccn3)CC2)cc1C#Cc1cccc(F)c1 [Compound 64] , I see its pKi listed as 6.88

# pKi (compound: Cc1ccc(C(=O)N2CCN(c3ccccn3)CC2)cc1C#CCc1ccccc1 [Compound 25] ) is 6.34

Reported pKi of COc1cccc(C#Cc2cc(C(=O)N3CCN(c4ccccn4)CC3)ccc2C)c1 [Compound 26] : 6.49

Entry Cc1ccc(C(=O)N2CCN(c3ccccn3)CC2)cc1C#Cc1cccnc1 [Compound 32] — recorded pKi = 5.51

// pKi value for Cc1ccc(C(=O)N2CCN(c3cnccn3)CC2)cc1C#CC1=CCCCC1 [Compound 56] : 5.72

The compound identified as Cc1ccc(C(=O)N2CCN(c3cnccn3)CC2)cc1C#Cc1cccc(Cl)c1 [Compound 67] registered its pKi at 7.31

Please fill in: pKi reported for COc1ccc(C(=O)N2CCN(c3ccccn3)CC2)cc1C#CC1=CCCCC1 [Compound 15] = 6.63

Value of pKi reported for the compound COc1ccc(C(=O)N2CCN(c3cnccn3)CC2)cc1C#Cc1ccccn1 [Compound 66] is 7.67

pKi in this record for COc1ccc(C(=O)N2CCN(c3ccccn3)CC2)cc1C#Cc1cccc(C(F)(F)F)c1 [Compound 43] : 6.56

###

- system name: rat mGluR5 receptor (Rattus norvegicus)
- Construct: expressed in transfected cells; host or cells: HEK-293
- assay text: [3H]-MPEP displacement binding assay, HEK-293 cell membranes expressing rat mGluR5
- condition notes: [3H]-MPEP 4 nM; Table 4A; read-out: Median Ki
endpoint name: Ki

The measured Ki associated with O=C(c1cccc(COc2ccccn2)c1)N1CCN(c2ccccn2)CC1 reads > 10000 nM

According to the records, this compound O=C(c1cccc(COc2cccc(Br)c2)c1)N1CCN(c2ccccn2)CC1 displays Ki of 862 nM

GET /value?item= O=C(c1cccc(COc2cccc(Cl)c2)c1)N1CCN(c2ccccn2)CC1 &field=Ki returns 813 nM

Value of measured Ki for the entry COc1cccc(OCc2cccc(C(=O)N3CCN(c4ccccn4)CC3)c2)c1 : > 10000 nM

The compound listed as O=C(c1cccc(COc2ccccc2)c1)N1CCN(c2ccccn2)CC1 shows Ki equal to > 10000 nM

Ki reported for this compound CCc1cccc(OCc2cccc(C(=O)N3CCN(c4ccccn4)CC3)c2)c1 : > 10000 nM

For Cc1cccc(OCc2cccc(C(=O)N3CCN(c4ccccn4)CC3)c2)c1 the compound record lists Ki as 1750 nM

// field: Ki; key: N#Cc1cccc(OCc2cccc(C(=O)N3CCN(c4ccccn4)CC3)c2)c1 ; value = 2970 nM

###

- system name: rat mGluR5 receptor (Rattus norvegicus, UniProt P31424)
- Construct: expressed in transfected cells; host or cells: HEK-293
- assay text: [3H]-MPEP displacement binding assay, HEK-293 cell membranes expressing rat mGluR5
- condition notes: [3H]-MPEP displacement, rat mGluR5; read-out: Median Ki
Assignment: determine reported log10(Ki) for the given compounds.
Would you kindly interpret these values as log10 of Ki expressed in nM?

Entry COc1ccc(C(=O)N2CCN(S(=O)(=O)c3ccc(C)cc3)CC2)cc1C#Cc1ccccn1 [Compound 253] , tested on rat mGluR5 receptor (Rattus norvegicus, UniProt P31424), has a reported log10(Ki) of 1.32

Observed log10(Ki), rat mGluR5 receptor (Rattus norvegicus, UniProt P31424), COc1ccc(C(=O)N2CCN(C(=O)C3CC3)CC2)cc1C#Cc1ccccn1 [Compound 248] : 1.92

Tested system rat mGluR5 receptor (Rattus norvegicus, UniProt P31424); log10(Ki) recorded for O=C(c1ccc(OCC2CC2)c(C#Cc2ccccn2)c1)N1CCN(c2ncccn2)CC1 [Compound 325] was 3.13

rat mGluR5 receptor (Rattus norvegicus, UniProt P31424) assay, compound COc1ccc(C(=O)N2CCN(c3ncc(Cl)cc3Cl)CC2)cc1C#Cc1ccccn1 [Compound 185] , recorded log10(Ki) = 1.67

Assay rat mGluR5 receptor (Rattus norvegicus, UniProt P31424), sample O=C(c1ccc(F)c(C#Cc2ccccn2)c1)N1CCN(c2noc3ccccc23)CC1 [Compound 316] , log10(Ki) read: 0.30

Tested on rat mGluR5 receptor (Rattus norvegicus, UniProt P31424), the item COc1ccc(C(=O)N2CCN(c3ncc(Br)c(OC)n3)CC2)cc1C#Cc1ccccn1 [Compound 197] showed log10(Ki) equal to 1.08

Lab note: compound COc1ccc(C(=O)N2CCN(c3nccc(C(F)(F)F)n3)CC2)cc1C#Cc1ccccn1 [Compound 194] tested on rat mGluR5 receptor (Rattus norvegicus, UniProt P31424); recorded log10(Ki) was 0.60

Recorded log10(Ki) for COc1ccc(C(=O)N2CCCN(c3ncc(C(F)(F)F)cc3Cl)CC2)cc1C#Cc1ccccn1 [Compound 212] on rat mGluR5 receptor (Rattus norvegicus, UniProt P31424) was 2.85

Recorded log10(Ki) for COc1ccc(C(=O)N2CCN(c3nnc(-c4ccccc4)[nH]3)CC2)cc1C#Cc1ccccn1 [Compound 291] on rat mGluR5 receptor (Rattus norvegicus, UniProt P31424) was 2.30

Fill in: rat mGluR5 receptor (Rattus norvegicus, UniProt P31424) log10(Ki) for COc1ccc(C(=O)N2CCN(c3cc(Cl)cc(Cl)c3)CC2)cc1C#Cc1ccccn1 [Compound 271] = 1.26

So the reported log10(Ki) for Cc1ccc(C(=O)N2CCN(c3noc4ccccc34)CC2)cc1C#Cc1ccccn1 [Compound 307] , on rat mGluR5 receptor (Rattus norvegicus, UniProt P31424), turned out to be 0.00

Fill in: rat mGluR5 receptor (Rattus norvegicus, UniProt P31424) log10(Ki) for COc1ccc(C(=O)N2CCN(c3cccc(O)c3)CC2)cc1C#Cc1ccccn1 [Compound 195] = 1.41

rat mGluR5 receptor (Rattus norvegicus, UniProt P31424) log10(Ki) of COc1ccc(C(=O)N2CCN(S(=O)(=O)c3ccccc3)CC2)cc1C#Cc1ccccn1 [Compound 224] is 2.06

Measured log10(Ki) (rat mGluR5 receptor (Rattus norvegicus, UniProt P31424)), entry COc1ccc(C(=O)N2CCN(c3ncccn3)CC2)cc1C#Cc1cccc(C#N)c1 [Compound 361] : 1.81

Noted log10(Ki) for COc1nc(N2CCN(C(=O)c3ccc(OC(F)(F)F)c(C#Cc4ccccn4)c3)CC2)ncc1Br [Compound 339] , tested on rat mGluR5 receptor (Rattus norvegicus, UniProt P31424): 2.85

The value of log10(Ki) recorded for COc1ccc(C(=O)N2CCN(c3cccc(Cl)c3)C(=O)C2)cc1C#Cc1ccccn1 [Compound 327] when tested on rat mGluR5 receptor (Rattus norvegicus, UniProt P31424) reads 1.60

The reported rat mGluR5 receptor (Rattus norvegicus, UniProt P31424) log10(Ki) of COc1ccc(C(=O)N2CCN(c3ccc(F)cc3)CC2)cc1C#Cc1ccccn1 [Compound 231] is 1.36
